MEAN CORPUSCULAR VOLUME for assorted compounds
Species: Rattus norvegicus
MEASUREMENT_DESCRIPTION: DrugMatrix - Regimen: Daily Repeat
Format: toxicity, organism-based, Sprague-Dawley
Parameters: regimen Daily Repeat, gender Male, age 6-8 weeks
ASSAY_CONTEXT: in vivo, po, 0 mg/kg, 72 h, tissue Blood, route oral GAVAGE, dose level Control, time 3 day, […]

{"COMPOUND": "Clc1ccc(COC(Cn2ccnc2)c2ccc(Cl)cc2Cl)cc1 (centres undefined)", "MEAN CORPUSCULAR VOLUME": "67 fL"}
{"COMPOUND": "CC(C)(C)NC(=O)[C@H]1CC[C@H]2[C@@H]3CC[C@H]4NC(=O)C=C[C@]4(C)[C@H]3CC[C@]12C [FINASTERIDE]", "MEAN CORPUSCULAR VOLUME": "62.93 fL"}
{"COMPOUND": "CO[C@H]1/C=C/O[C@@]2(C)Oc3c(C)c(O)c4c(O)c(c(/C=N/N5CCN(C6CCCC6)CC5)c(O)c4c3C2=O)NC(=O)/C(C)=C\\C=C\\[C@H](C)[C@H](O)[C@@H](C)[C@@H](O)[C@@H](C)[C@H](OC(C)=O)[C@@H]1C", "MEAN CORPUSCULAR VOLUME": "62.88 fL"}
{"COMPOUND": "COc1cc(N)c(Cl)cc1C(=O)NC1CCN(CCCOc2ccc(F)cc2)CC1OC (centres undefined) [CISAPRIDE]", "MEAN CORPUSCULAR VOLUME": "62.38 fL"}
